Value source: paper PMC3226707

target: T1, palladin peptide WT (Homo sapiens); test: ITC
T1 chain: Ac-HGQTPAAFLSALLPSQP
pKd: −log10 of the molar value. Where no end group is shown, it is not given here.
endpoint.name: pKd

binder	test.value
Act-EF34 (alpha-actinin-2) 823-894 (protein) ADTDTAEQVIASFRILASDKPYILAEELRRELPPDQAQYCIKRMPAYSGPGSVPGALDYAAFSSALYGESDL	4.80
